Answer each item with its documented pIC50.
target: Nonstructural protein 3 (Zika virus, UniProt A0A024AXB9); assay: Functional biochemical assay to identify treatments for viral infectious disease that targets Zika NS2B-NS3 protease. Utilizing a direct enzyme activity measurement method, reading the fluorescence intensity is used to characterize the relative potency of inhibitors as IC50.; set-up: species or system PRVABC59
Sequence (A0A024AXB9 whole entry): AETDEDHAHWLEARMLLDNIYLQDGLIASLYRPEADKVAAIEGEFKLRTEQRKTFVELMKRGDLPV
One number for each entry, as −log10 of the molar value.

For orientation, consider the following solved cases.
1) O=C(NCc1ccc2c(c1)CCNC2)c1cc(Cl)cc2[nH]ncc12	4.63
2) NC[C@@H]1CN(c2cc(N3CC[C@H](N)C3)cc3c2COB3O)C(=O)O1	4.14

Quick batch: pIC50 for everything below.
1. Cn1cc2c(C(=O)Nc3ccc4c(c3)CNC4)cc(F)cc2n1
2. O=C(NCC(F)F)[C@H](Nc1ccc2c(c1)CNC2)c1cc(Br)ccc1Oc1ccc(Cl)c(Cl)c1

[6.97, 6.67]
